All figures here come from the RNAGym collection of RNA variant scans (doi:10.7554/elife.80360).

B1: HDV Ribozyme (parent)
chain: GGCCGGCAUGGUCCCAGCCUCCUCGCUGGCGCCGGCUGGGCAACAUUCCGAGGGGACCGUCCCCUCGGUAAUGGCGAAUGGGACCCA

# Variants of: B1
# Assay method text: self-cleavage, relative activity (ratio to wild type); higher = more cleavage; co-transcriptional
Response key: true means self-cleavage >= 0.2; false means self-cleavage < 0.2.

# Variant descriptor, Assigned class
rows = [
    ("C41G C75G", "true"),
    ("A16U G50U", "true"),
    ("C63A A87G", "true"),
    ("G2U C4G", "false"),
    ("C41U C63G", "true"),
    ("G39C U60C", "true"),
    ("C4U G28A", "false"),
    ("C24U G67A", "true"),
    ("C3G C33U", "false"),
    ("C49U U69C", "true"),
    ("A70G A87C", "true"),
    ("G5C G55A", "false"),
    ("U20G G52A", "true"),
    ("G39C C75U", "false"),
    ("C21G G54A", "false"),
    ("G55U C64U", "true"),
    ("U12A G28A", "false"),
    ("A51G", "true"),
    ("G28C C48U", "false"),
    ("A51G C75A", "false"),
    ("C3G G5C", "true"),
]
